All figures here come from ChEMBL document CHEMBL1641437.

Below is a list of entries, each paired with its recorded pKi value.
# tested-system: UniProt P00747
# Sequence (P00747 97-580 limits assumed): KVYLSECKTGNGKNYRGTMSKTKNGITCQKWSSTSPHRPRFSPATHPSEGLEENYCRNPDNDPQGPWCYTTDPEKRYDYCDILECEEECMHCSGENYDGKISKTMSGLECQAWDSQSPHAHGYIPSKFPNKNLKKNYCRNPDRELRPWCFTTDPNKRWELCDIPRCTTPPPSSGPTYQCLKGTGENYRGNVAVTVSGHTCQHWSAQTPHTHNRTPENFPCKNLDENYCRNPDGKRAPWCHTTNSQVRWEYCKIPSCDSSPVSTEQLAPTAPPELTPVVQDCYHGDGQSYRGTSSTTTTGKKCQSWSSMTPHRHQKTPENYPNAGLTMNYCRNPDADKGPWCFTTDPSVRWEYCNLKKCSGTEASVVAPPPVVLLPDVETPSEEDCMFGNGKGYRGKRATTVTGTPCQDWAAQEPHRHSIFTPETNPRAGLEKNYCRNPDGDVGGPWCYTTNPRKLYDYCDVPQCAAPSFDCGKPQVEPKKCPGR
# Sequence (P00747 581-810 limits assumed): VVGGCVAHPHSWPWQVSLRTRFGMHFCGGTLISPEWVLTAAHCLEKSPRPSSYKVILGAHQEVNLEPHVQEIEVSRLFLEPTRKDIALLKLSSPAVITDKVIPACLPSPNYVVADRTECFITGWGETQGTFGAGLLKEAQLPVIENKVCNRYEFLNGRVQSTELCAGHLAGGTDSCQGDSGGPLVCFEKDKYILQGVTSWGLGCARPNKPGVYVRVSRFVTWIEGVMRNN
Recall that pKi is obtained by taking minus log10 of the concentration measured in molar.

cpd_smiles=C/C(=N\NC(=N)N)c1cc(NC(=O)[C@H](N)CCCNC(=N)N)cc(/C(C)=N/NC(=N)N)c1 numeric_value=3.00
cpd_smiles=C/C(=N\NC(=N)N)c1cc(NC(=O)CCCCCNC(=N)N)cc(/C(C)=N/NC(=N)N)c1 numeric_value=3.00
cpd_smiles=C/C(=N\NC(=N)N)c1cc(NC(=O)CCCNC(=N)N)cc(/C(C)=N/NC(=N)N)c1 numeric_value=3.00

Turning now to a further record.
**Q:** Enter reported pKi observed with UniProt P00747 for `C/C(=N\NC(=N)N)c1cc(NS(=O)(=O)c2ccccc2)cc(/C(C)=N/NC(=N)N)c1`
**A:** 3.40
